Overview of recorded Pgp AbA/analogue ratio for various molecules
target: ATP-dependent translocase ABCB1 (Homo sapiens, UniProt P08183)
testName: Direct comparison of the antifungal activities with the relative Pgp-inhibitory potencies, calculated by comparing ug/mL IC50(or IC20).
Assay type: functional
assayReadout: Pgp AbA/analogue ratio

| compoundString | assayReadout | measured |
| --- | --- | --- |
| CC[C@@H](C)[C@@H]1NC(=O)[C@@H]2CCCN2C(=O)[C@H]([C@H](O)c2ccccc2)N(C)C(=O)[C@H](Cc2ccccc2)NC(=O)[C@H](C(C)C)N(C)C(=O)[C@@H]([C@@H](C)CC)OC(=O)[C@H](C(C)(C)O)N(C)C(=O)[C@H](CC(C)C)NC(=O)[C@H](C(C)C)N(C)C1=O | Pgp AbA/analogue ratio | 1 |
| CC[C@@H](C)[C@@H]1NC(=O)[C@@H]2CCCN2C(=O)[C@H](Cc2ccccc2)N(C)C(=O)[C@H](Cc2ccccc2)NC(=O)[C@H](C(C)C)N(C)C(=O)[C@@H]([C@@H](C)CC)OC(=O)[C@H](C(C)(C)O)N(C)C(=O)[C@H](CC(C)C)NC(=O)[C@H](C(C)C)NC1=O | Pgp AbA/analogue ratio | 0.3 |
| CC[C@@H](C)[C@@H]1NC(=O)[C@@H]2CCCN2C(=O)[C@H](Cc2ccccc2)N(C)C(=O)[C@H](Cc2ccccc2)NC(=O)[C@H](C(C)C)N(C)C(=O)[C@@H]([C@@H](C)CC)OC(=O)CN(C)C(=O)[C@H](CC(C)C)NC(=O)[C@H](C(C)C)N(C)C1=O | Pgp AbA/analogue ratio | 2.7 |
| CC[C@@H](C)[C@@H]1NC(=O)CCCCCCCNC(=O)[C@H](C(C)C)N(C)C(=O)[C@@H]([C@@H](C)CC)OC(=O)[C@H](C(C)(C)O)N(C)C(=O)[C@H](CC(C)C)NC(=O)[C@H](C(C)C)N(C)C1=O | Pgp AbA/analogue ratio | 0.4 |

###

Overview of recorded IC50 for various compounds
target: P-glycoprotein (ABCB1, MDR1) (Homo sapiens, UniProt P08183)
Sequence (P08183 whole entry): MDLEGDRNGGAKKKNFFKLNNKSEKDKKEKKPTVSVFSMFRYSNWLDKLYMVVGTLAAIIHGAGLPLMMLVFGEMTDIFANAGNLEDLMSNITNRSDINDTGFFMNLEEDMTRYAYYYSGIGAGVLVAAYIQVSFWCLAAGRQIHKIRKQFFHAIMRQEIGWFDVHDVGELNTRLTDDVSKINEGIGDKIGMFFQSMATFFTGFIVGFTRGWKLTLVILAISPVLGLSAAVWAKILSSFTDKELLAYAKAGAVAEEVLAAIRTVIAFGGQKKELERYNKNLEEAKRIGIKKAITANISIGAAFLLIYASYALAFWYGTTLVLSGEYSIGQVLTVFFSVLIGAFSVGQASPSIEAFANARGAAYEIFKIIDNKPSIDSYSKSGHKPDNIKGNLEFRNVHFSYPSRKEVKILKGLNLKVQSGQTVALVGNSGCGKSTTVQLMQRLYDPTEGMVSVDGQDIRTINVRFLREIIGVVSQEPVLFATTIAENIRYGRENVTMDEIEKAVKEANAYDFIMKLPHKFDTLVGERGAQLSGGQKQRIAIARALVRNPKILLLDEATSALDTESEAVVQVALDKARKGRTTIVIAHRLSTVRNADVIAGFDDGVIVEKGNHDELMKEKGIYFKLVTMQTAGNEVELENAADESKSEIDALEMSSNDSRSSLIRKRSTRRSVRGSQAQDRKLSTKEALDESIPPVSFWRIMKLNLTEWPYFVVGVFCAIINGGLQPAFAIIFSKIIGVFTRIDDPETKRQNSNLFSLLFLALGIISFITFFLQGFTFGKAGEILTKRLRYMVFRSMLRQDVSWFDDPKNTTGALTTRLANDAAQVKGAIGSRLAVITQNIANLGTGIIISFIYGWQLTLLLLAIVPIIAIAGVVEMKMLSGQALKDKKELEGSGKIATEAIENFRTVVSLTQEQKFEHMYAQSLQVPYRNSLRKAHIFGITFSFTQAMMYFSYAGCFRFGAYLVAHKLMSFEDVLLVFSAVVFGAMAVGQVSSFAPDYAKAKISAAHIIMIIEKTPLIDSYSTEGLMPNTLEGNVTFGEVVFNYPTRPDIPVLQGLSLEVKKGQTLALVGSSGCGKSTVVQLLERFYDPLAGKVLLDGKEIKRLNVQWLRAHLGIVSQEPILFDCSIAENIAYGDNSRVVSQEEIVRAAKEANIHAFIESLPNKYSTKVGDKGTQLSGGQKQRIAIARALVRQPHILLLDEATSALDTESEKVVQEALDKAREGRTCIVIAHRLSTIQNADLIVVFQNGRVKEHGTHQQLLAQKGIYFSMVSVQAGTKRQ
testName: Human MDR1 Pgp inhibitory activity by using standard calcein-AM efflux method with the human leukemia CEM cells.
Assay type: cell-based, CCRF-CEM
conditionDetails: human, human leukemia CEM cells, probe calcein-AM

| compound | IC50, nM |
| --- | --- |
| CC[C@@H](C)[C@@H]1NC(=O)[C@@H]2CCCN2C(=O)[C@H](Cc2ccccc2)N(C)C(=O)[C@H](Cc2ccccc2)NC(=O)[C@H](C(C)C)N(C)C(=O)[C@@H]([C@@H](C)CC)OC(=O)[C@]2(OC2(C)C)N(C)C(=O)[C@H](CC(C)C)NC(=O)[C@H](C(C)C)N(C)C1=O | 1550 |
| CC[C@H](C)[C@@H]1NC(=O)[C@@H]2CCCN2C(=O)[C@H](Cc2ccccc2)N(C)C(=O)[C@H](Cc2ccccc2)NC(=O)[C@H](C(C)C)N(C)C(=O)[C@@H]([C@@H](C)CC)OC(=O)[C@@H](C(C)(C)O)N(C)C(=O)[C@H](CC(C)C)NC(=O)[C@H](C(C)C)N(C)C1=O | 390 |
| CC[C@@H](C)[C@@H]1NC(=O)[C@@H]2CCCN2C(=O)[C@H](Cc2ccccc2)N(C)C(=O)[C@H](Cc2ccccc2)NC(=O)[C@H](C(C)C)N(C)C(=O)[C@@H]([C@@H](C)CC)OC(=O)[C@H](C(C)(C)O)N(C)C(=O)[C@H](CC(C)C)NC(=O)C(C(C)C)OC1=O (some centres undefined) | 1660 |
| CC[C@@H](C)[C@@H]1NC(=O)[C@@H]2CCCN2C(=O)[C@H]([C@H](O)c2ccccc2)N(C)C(=O)[C@H](Cc2ccccc2)NC(=O)[C@H](C(C)C)N(C)C(=O)[C@@H]([C@@H](C)CC)OC(=O)[C@H](C(C)C)N(C)C(=O)[C@H](CC(C)C)NC(=O)[C@H](C(C)C)N(C)C1=O | 1360 |

###

Tested on: Saccharomyces cerevisiae
testName: Relative antifungal activity (against Saccharomyces cerevisiae) compared to AbA

| compoundString | readoutRelation | antifungal AbA/analogue ratio |
| --- | --- | --- |
| CC[C@@H](C)[C@@H]1NC(=O)[C@@H]2CCCN2C(=O)[C@H]([C@H](O)c2ccccc2)N(C)C(=O)[C@H](Cc2ccccc2)NC(=O)[C@H](C(C)C)N(C)C(=O)[C@@H]([C@@H](C)CC)OC(=O)[C@H](C(C)(C)O)N(C)C(=O)[C@H](CC(C)C)NC(=O)[C@H](C(C)C)N(C)C1=O | = | 0.5 |
| CC[C@@H](C)[C@@H]1NC(=O)[C@@H]2CCCN2C(=O)[C@H](Cc2ccccc2)N(C)C(=O)[C@H](Cc2ccccc2)NC(=O)[C@H](C(C)C)N(C)C(=O)[C@@H]([C@@H](C)CC)OC(=O)[C@H](C(C)(C)O)N(C)C(=O)[C@H](CC(C)C)NC(=O)[C@H](C(C)C)NC1=O | = | 0.25 |
| CC[C@@H](C)[C@@H]1NC(=O)[C@@H]2CCCN2C(=O)[C@H](Cc2ccccc2)N(C)C(=O)[C@H](C2CCCCC2)NC(=O)[C@H](C(C)C)N(C)C(=O)[C@@H]([C@@H](C)CC)OC(=O)[C@H](C(C)(C)O)N(C)C(=O)[C@H](CC(C)C)NC(=O)[C@H](C(C)C)N(C)C1=O | = | 0.25 |
| CC[C@@H](C)[C@@H]1NC(=O)[C@@H]2CCCN2C(=O)[C@H](Cc2ccccc2)N(C)C(=O)[C@H](Cc2ccccc2)NC(=O)[C@H](C(C)C)N(C)C(=O)[C@@H]([C@@H](C)CC)OC(=O)C(=C(C)C)N(C)C(=O)[C@H](CC(C)C)NC(=O)[C@H](C(C)C)N(C)C1=O | < | 0.016 |
| CC[C@H](C)[C@@H]1NC(=O)[C@@H]2CCCN2C(=O)[C@@H](C)N(C)C(=O)[C@H](Cc2ccc(OCC3CCCCC3)cc2)NC(=O)[C@H](C(C)C)N(C)C(=O)[C@@H]([C@@H](C)CC)OC(=O)[C@H](C(C)(C)O)N(C)C(=O)[C@H](CC(C)C)NC(=O)[C@H](C(C)C)N(C)C1=O | = | 0.25 |
| CC[C@@H](C)[C@@H]1NC(=O)[C@@H]2CCCN2C(=O)[C@H](Cc2ccccc2)N(C)C(=O)[C@H](Cc2ccccc2)NC(=O)[C@H](C(C)C)N(C)C(=O)[C@@H]([C@@H](C)CC)OC(=O)[C@H]([C@H](C)CO)N(C)C(=O)[C@H](CC(C)C)NC(=O)[C@H](C(C)C)N(C)C1=O | = | 0.06 |
| CC[C@@H](C)[C@@H]1NC(=O)CCCCCCCNC(=O)[C@H](C(C)C)N(C)C(=O)[C@@H]([C@@H](C)CC)OC(=O)[C@H](C(C)(C)O)N(C)C(=O)[C@H](CC(C)C)NC(=O)[C@H](C(C)C)N(C)C1=O | < | 0.016 |
| CC[C@@H](C)[C@@H]1NC(=O)[C@@H]2CCCN2C(=O)[C@H](Cc2ccccc2)N(C)C(=O)[C@H](Cc2ccccc2)NC(=O)[C@H](C(C)C)N(C)C(=O)[C@@H](C(C)C)OC(=O)[C@H](C(C)(C)O)N(C)C(=O)[C@H](CC(C)C)NC(=O)[C@H](C(C)C)N(C)C1=O | = | 1 |
| CC[C@@H](C)[C@@H]1NC(=O)[C@@H]2CCCN2C(=O)[C@H]([C@H](O)c2ccccc2)N(C)C(=O)[C@H](Cc2ccccc2)NC(=O)[C@H](C(C)C)N(C)C(=O)[C@@H]([C@@H](C)CC)OC(=O)[C@H](C(C)C)N(C)C(=O)[C@H](CC(C)C)NC(=O)[C@H](C(C)C)N(C)C1=O | = | 0.25 |

###

Overview of recorded pIC50 for various compounds
target: UniProt P08183
testName: Human MDR1 Pgp inhibitory activity by using standard calcein-AM efflux method with the human leukemia CEM cells.
Type: cell-based, CCRF-CEM
pIC50: −log10 of the molar value.

| compoundString | pIC50 |
| --- | --- |
| CC[C@H](C)[C@@H]1NC(=O)[C@@H]2CCCN2C(=O)[C@H](Cc2ccccc2)N(C)C(=O)[C@H](Cc2ccccc2)NC(=O)[C@H](C(C)C)N(C)C(=O)[C@@H]([C@@H](C)CC)OC(=O)[C@H](C(C)(C)O)N(C)C(=O)[C@H](CC(C)C)NC(=O)[C@@H](C(C)C)N(C)C1=O | < 5.56 |
| CC[C@H](C)[C@@H]1NC(=O)[C@@H]2CCCN2C(=O)[C@@H](C)N(C)C(=O)[C@H](CO)NC(=O)[C@H](C(C)C)N(C)C(=O)[C@@H]([C@@H](C)CC)OC(=O)[C@H](C(C)(C)O)N(C)C(=O)[C@H](CC(C)C)NC(=O)[C@H](C(C)C)N(C)C1=O | < 4.51 |
| CC[C@H](C)[C@@H]1NC(=O)[C@H]2CCCN2C(=O)[C@H](Cc2ccccc2)N(C)C(=O)[C@H](Cc2ccccc2)NC(=O)[C@H](C(C)C)N(C)C(=O)[C@@H]([C@@H](C)CC)OC(=O)[C@H](C(C)(C)O)N(C)C(=O)[C@H](CC(C)C)NC(=O)[C@H](C(C)C)N(C)C1=O | < 5.57 |
